Target: mu-type opioid receptor (Rattus norvegicus)
Construct: using rat forebrain membranes; from tissue; host or cells: rat forebrain membranes
Sequence (P33535 whole entry): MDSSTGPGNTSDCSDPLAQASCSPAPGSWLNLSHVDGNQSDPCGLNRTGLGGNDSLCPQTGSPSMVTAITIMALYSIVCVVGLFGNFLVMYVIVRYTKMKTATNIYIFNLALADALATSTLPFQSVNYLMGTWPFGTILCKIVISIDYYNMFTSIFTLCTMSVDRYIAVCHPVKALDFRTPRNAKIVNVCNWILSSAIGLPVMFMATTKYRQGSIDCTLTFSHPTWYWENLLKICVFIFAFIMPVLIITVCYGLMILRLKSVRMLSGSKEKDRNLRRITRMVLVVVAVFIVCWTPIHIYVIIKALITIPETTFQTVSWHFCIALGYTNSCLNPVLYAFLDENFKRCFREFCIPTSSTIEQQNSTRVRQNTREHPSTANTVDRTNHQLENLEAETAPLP
Experiment: inhibition of specific [^3 H] DAGO binding to rat forebrain membranes
Details: Tables 1 and 2; rat brain membranes; MEAN±S.E.M.; read-out: Ki, inhibition of specific [^3 H] DAGO binding
pKi: −log10 of the molar value.
measured_property: pKi

1. ON=C1CC[C@@]2(O)[C@H]3Cc4ccc(O)c5c4[C@@]2(CCN3CC2CC2)[C@H]1O5 [Example IX] :: 9.62

====

Biological target: delta-type opioid receptor (Rattus norvegicus)
Sequence (P33533 whole entry): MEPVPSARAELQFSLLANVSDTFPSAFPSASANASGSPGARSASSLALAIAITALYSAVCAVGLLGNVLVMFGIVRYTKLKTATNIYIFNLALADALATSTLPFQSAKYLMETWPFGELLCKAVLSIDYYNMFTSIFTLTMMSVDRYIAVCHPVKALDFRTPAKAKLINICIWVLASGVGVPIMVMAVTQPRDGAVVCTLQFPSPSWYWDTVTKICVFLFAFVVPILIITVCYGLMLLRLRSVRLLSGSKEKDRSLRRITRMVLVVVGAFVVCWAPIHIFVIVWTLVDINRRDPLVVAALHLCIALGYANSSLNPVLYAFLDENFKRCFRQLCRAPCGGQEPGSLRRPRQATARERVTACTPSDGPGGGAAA
Experiment: inhibition of specific [^3 H] DADLE binding to rat forebrain membranes
Details: read-out: (Ki) nM, δ receptor (Rat Forebrain); Table 6; [^3 H] DADLE, mean of three experiments
Form field: Ki (one value per entry).
measured_property: Ki

1) Oc1ccc2c3c1O[C@H]1C(=NOCc4ccccc4)CC[C@@]4(O)[C@@H](C2)N(CC2CC2)CC[C@]314 [Example XI] :: 0.87 nM
2) Cc1ccc(ON=C2CC[C@@]3(O)[C@H]4Cc5ccc(O)c6c5[C@@]3(CCN4CC3CC3)[C@H]2O6)cc1C [Example XIII] :: 2.69 nM
3) Oc1ccc2c3c1O[C@H]1C(=NOc4ccc(C(F)(F)F)cc4)CC[C@@]4(O)[C@@H](C2)N(CC2CC2)CC[C@]314 [Example XVII] :: 34.4 nM
4) NCc1ccc(ON=C2CC[C@@]3(O)[C@H]4Cc5ccc(O)c6c5[C@@]3(CCN4CC3CC3)[C@H]2O6)cc1 [Example XXIV] :: 1 nM

The origin of these recorded values is patent US4889860A.
